Value source: ChEMBL document CHEMBL1201862

A collection of compounds and their measured GI50
tested on: TK-10; experiment: NCI tumour cell line growth inhibition, 48 h
Calls of active or inactive are those of the source. Rule as the data show it: active = GI50 up to about 1.1 µM and inactive = higher.
reported_endpoint: GI50

>>> measured_value("CCC(CO)Nc1nc(NCc2ccccc2)c2ncn(C(C)C)c2n1 (stereo not drawn) [(RS)-ROSCOVITINE]")
"24.4 µM (inactive)"
>>> measured_value("CNC(=O)Nc1nc2cc([N+](=O)[O-])ccc2[nH]1")
"> 100 µM (inactive)"
>>> measured_value("COC(=O)CNC(=O)/C=C/[C@H](O[Si](C)(C)C(C)(C)C)[C@H](/C=C/C(=O)NCC(=O)OC)O[Si](C)(C)C(C)(C)C")
"> 25 µM (inactive)"
>>> measured_value("COc1ccc(C[C@H](N)C(=O)N2C[C@H](CO)C[C@H](n3ccc(=O)[nH]c3=O)C2)cc1")
"> 100 µM (inactive)"
>>> measured_value("O/N=C(\\CC(O)(C(F)(F)F)C(F)(F)F)c1cccc(Cl)c1")
"22.3 µM (inactive)"
>>> measured_value("O=C1c2c(c(-c3ccccc3)c(-c3ccccc3)c(-c3ccccc3)c2-c2ccccc2)C(=O)N1c1cccc(Br)c1")
"> 100 µM (inactive)"
>>> measured_value("CN(C)CCCN1C(=S)N(CCCN(C)C)c2c3ccccc3nc3c([N+](=O)[O-])ccc1c23")
"10 µM (inactive)"
>>> measured_value("COc1c2c(c(OC)c3c(=O)cc(C/C(=N/NC(=O)C[n+]4ccccc4)C(=O)Nc4cc(C)ccc4C)oc13)OCO2")
"> 100 µM (inactive)"
>>> measured_value("O=C1C=CC(=C(c2ccc(O)cc2)c2ccc(O)cc2)C=C1")
"19 µM (inactive)"

* * *

test system: OVCAR-8; test: NCI tumour cell line growth inhibition, 48 h
Active and inactive are the calls of the source. Rule as the data show it: active = GI50 up to about 1.1 µM and inactive = higher.
A collection of compounds and their measured GI50
reported_endpoint: GI50

>>> measured_value("C#CC[C@@H]1C(=O)N(Cc2ccc(OC)cc2)[C@@H](C(C)C)C(=O)N1Cc1ccc(OC)cc1")
"46.1 µM (inactive)"
>>> measured_value("O=C1CSC2(CC(/C=C/c3ccccc3O)=NN2c2cccc(S(=O)(=O)O)c2)N1c1nc2ccccc2s1 (stereo not drawn)")
"17.9 µM (inactive)"
>>> measured_value("CCc1cccc(C(C)CC)c1/N=C(/NC(=O)c1ccccc1C(=O)N/C(=N/c1c(CC)cccc1C(C)CC)SC)SC (stereo not drawn)")
"59.2 µM (inactive)"

* * *

A collection of compounds and their measured GI50
test system: UO-31; assay: NCI tumour cell line growth inhibition, 48 h
Activity calls are given as the source filed them. Rule as the data show it: active = GI50 up to about 1.1 µM and inactive = higher. *1 amine or outer side, *2 acyl side, *3 side chain or, on linkers, in order; H or OH if unused. Positions of bridges follow the written chain, without caps; N, C: chain ends. Where a SMILES comes first, the peptide text is derived from it. Residues, ends and D or L forms follow the SMILES beside them. [ ]: non-standard residue; d: D form. The star is where a group is joined. ξ: configuration not given here. NMeY = CN[C@@H](Cc1ccc(O)cc1)C(=O)O; Ethylenediamine = C(CN[*:2])N[*:1]; ξNMeL = CNC(CC(C)C)C(=O)O; Cbz = O=C(OCc1ccccc1)*; Lac = C[C@H](O)C(=O)O; ξA = CC(N)C(=O)O
reported_endpoint: GI50

>>> measured_value("SC1=NC2=C(CSC/C2=C\\c2ccccc2)C(c2ccccc2)N1 (configuration not stated)")
"33.8 µM (inactive)"
>>> measured_value("Cc1cccc(NC(=S)Nc2ccccc2Cl)n1")
"> 100 µM (inactive)"
>>> measured_value("CC1=CC(=O)/C(=C/NC(N)=S)C(=O)O1")
"38.5 µM (inactive)"
>>> measured_value("COc1ccc(C[C@@H](C(=O)NCCNC(=O)C(CC(C)C)N(C)C(=O)[C@@H]2CCCN2C(=O)[C@H](C)O)N(C)C(=O)[C@@H]2CCCN2C(=O)[C@H](CC(C)C)NC(=O)C(C)NC(=O)OCc2ccccc2)cc1 (some centres not stated) (Cbz-[ξA]LP[NMeY](Me)-{Ethylenediamine-ξNMeL-Pro-Lac})")
"> 100 µM (inactive)"
>>> measured_value("COC(=O)CCC(NC(=S)N/N=C(\\C)c1ccccn1)C(=O)OC (configuration not stated)")
"38.1 µM (inactive)"
>>> measured_value("CCN(CC)Cc1cc(Nc2c3ccccc3nc3c2[nH]c2ccccc23)cc(CN(CC)CC)c1O")
"1.68 µM (inactive)"
>>> measured_value("Cc1cc2c3c([nH]c2c2ccnc(C)c12)CCCC3")
"2.05 µM (inactive)"
>>> measured_value("CC(=O)N(C)C(C(=O)N1CC(C)CC1C(=O)N(C)C1C(=O)NC(CC(C)C)C(=O)N2CC(C)CC2C(=O)NC(CC(C)C)C(=O)N(C)C(C(C)C)C(=O)N2CCCC2C(=O)N(C)C(CC(C)C)C(=O)NCC(=O)OC1C)C(C)C (configuration not stated)")
"> 100 µM (inactive)"
>>> measured_value("CCOC(CCCN1CCC2(CC1)C(=O)N(C)CN2c1ccccc1)(OCC)c1ccc(F)cc1")
"7.01 µM (inactive)"
>>> measured_value("CC(=O)C(=[N+]=[N-])C(=O)NCC#N")
"> 10 µM (inactive)"
>>> measured_value("C=C(C(=O)OC1C(CO)OC(OCC2CC[C@@H]3C[C@]4(OC(=O)C3=C)C(C)=CC(=O)C24)C(O)C1O)[C@@H]1CCC(CO)C2C(=O)C=C(C)[C@@]2(O)C1 (some centres not stated)")
"1.76 µM (inactive)"
>>> measured_value("COC(=O)C1CCC(=O)NCCCCC(NC(=O)C(N)CC(=O)O)C(=O)N1 (stereo not drawn) (H-Asp-Lys-Glu-OMe; lactam 2-3; configuration not given here)")
"> 100 µM (inactive)"

* * *

A collection of molecules and their measured GI50
system: NCI-H23; experiment: NCI tumour cell line growth inhibition, 48 h
Activity calls are given as the source filed them. Rule as the data show it: active = GI50 up to about 1.1 µM and inactive = higher. Peptide text beside a SMILES is read from it.
reported_endpoint: GI50

>>> measured_value("O=C1CCCCC/C1=C\\c1ccc(Cl)cc1")
"31.6 µM (inactive)"
>>> measured_value("CCSc1nc(-c2cccs2)nc2ccc(I)cc12")
"> 100 µM (inactive)"
>>> measured_value("CCC(C)C(NC(=O)C(NC(=O)C(CC(N)=O)NC(=O)CN)C(C)O)C(=O)NC(C(=O)NC(C)C(=O)NC(C(=O)NC(CCC(=O)O)C(=O)NC(CC(C)C)C(=O)NC(CC(=O)O)C(=O)NC(C(=O)NC(Cc1ccc(O)cc1)C(=O)N1CCCC1C(=O)O)C(C)O)C(C)C)C(C)C (stereo not drawn) (H-GNTIVAVELDTYP-OH; configuration not given here)")
"> 50 µM (inactive)"

* * *

test system: MDA-MB-231; test: NCI tumour cell line growth inhibition, 48 h
The source made the active and inactive calls. Rule as the data show it: active = GI50 up to about 1.1 µM and inactive = higher.
reported_endpoint: GI50

>>> measured_value("CNC(=O)Nc1nc2cc([N+](=O)[O-])ccc2[nH]1")
"> 100 µM (inactive)"
>>> measured_value("CN(C)Cc1cc(C(C)(C)C)cc(CN(C)C)c1O")
"92.5 µM (inactive)"
>>> measured_value("CCCCC(=O)OCC(=O)[C@]1(O)Cc2c(O)c3c(c(O)c2[C@@H](OC2CC(NC(=O)C(F)(F)F)C(O)C(C)O2)C1)C(=O)c1c(OC)cccc1C3=O (some centres undefined)")
"3 µM (inactive)"
>>> measured_value("COc1cc([C@@H]2c3cc4c(cc3[C@@H](NC(=O)NO)[C@H]3COC(=O)[C@H]23)OCO4)cc(OC)c1O")
"4.42 µM (inactive)"
>>> measured_value("O=C1CCCCC/C1=C\\c1ccc(Cl)cc1")
"73.6 µM (inactive)"
>>> measured_value("CC1=C(N2CC2)C(=O)c2nc3n(c2C1=O)CCC3OC(=O)CCl (centres undefined)")
"1.91 µM (inactive)"
>>> measured_value("CCOC(=O)c1nc2ccccc2nc1NCc1cc(OC)c(OC)c(OC)c1")
"27.4 µM (inactive)"
>>> measured_value("Cc1cc2c3c([nH]c2c2ccnc(C)c12)CCCC3")
"1.69 µM (inactive)"
>>> measured_value("Cc1ccnc2sc3ccccc3c(=O)c12")
"29.3 µM (inactive)"

* * *

tested on: Hs-578T; assay: NCI tumour cell line growth inhibition, 48 h
Calls of active or inactive are those of the source. Rule as the data show it: active = GI50 up to about 1.1 µM and inactive = higher.
A collection of compounds and their measured GI50
reported_endpoint: GI50

>>> measured_value("Cc1nc2ccc(F)cc2c2c1CCN2c1ccc(Cl)cc1")
"27.6 µM (inactive)"
>>> measured_value("Nc1ccc(C(=O)Nc2ccccc2N)cc1 [DINALINE]")
"22.3 µM (inactive)"
>>> measured_value("COC(=O)c1c(C)cccc1/C=C1/Cc2c(C)cccc2C1=O")
"32.6 µM (inactive)"
>>> measured_value("Cc1cccc(NC(=S)Nc2ccccc2Cl)n1")
"38.4 µM (inactive)"
>>> measured_value("O=C1CCCCC/C1=C\\c1ccc(Cl)cc1")
"20.8 µM (inactive)"
>>> measured_value("C/C=C\\C(CC(=O)O)CN1CCC2=C(C1)C(S(=O)(=O)C(F)(F)F)c1ccccc12 (configuration not stated)")
"> 100 µM (inactive)"
>>> measured_value("COc1ccc(C/C=C(\\C)CCO)cc1")
"> 100 µM (inactive)"
